experiment: viability loss in pontine glioma line – cell-based, JHH-DIPG-1, MIPE4.0, CellTiter-Glo, qHTS, dose response (AID 1347062); conditions: JHH-DIPG-1 viability, CellTiter-Glo ATP luminescence;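 as to AC50: cells exposed to compound for two days before readout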
Records with an inconclusive call do not appear. Activity calls are given as the source filed them. The limit is not given here; nearly all actives have AC50 up to about 27 µM.
endpoint: AC50

Below: 4 molecules and their reported AC50.
CC(=O)NCC(=O)N1[C@@H]2CC[C@H]1c1ccc(Nc3ncc(C(F)(F)F)c(NC4CCC4)n3)cc12 = 5.9 µM (active)
CCCCc1nc2cc(/C=C/C(=O)NO)ccc2n1CCN(CC)CC = 0.296 µM (active)
Cn1cc(C[C@@H](N)C(=O)O)c2ccccc21 = inactive
Cc1cnc(Nc2ccc(OCCN3CCCC3)cc2)nc1Nc1cccc(S(=O)(=O)NC(C)(C)C)c1 = inactive

--- query ---
Task item: Please supply the value of reported AC50 for the item `Nc1ccc(C(=O)c2cc3c(ccc4ccccc43)[nH]2)cc1`
Reply: 8.33 µM (active)
